Biological target: T1, Cynomolgus TCR(AEA41865/AEA41866)-zipper protein (cynomolgus monkey)
T1 construct: also called cyTCR-zipper protein; cynoTCR zipper
T1 TCR alpha: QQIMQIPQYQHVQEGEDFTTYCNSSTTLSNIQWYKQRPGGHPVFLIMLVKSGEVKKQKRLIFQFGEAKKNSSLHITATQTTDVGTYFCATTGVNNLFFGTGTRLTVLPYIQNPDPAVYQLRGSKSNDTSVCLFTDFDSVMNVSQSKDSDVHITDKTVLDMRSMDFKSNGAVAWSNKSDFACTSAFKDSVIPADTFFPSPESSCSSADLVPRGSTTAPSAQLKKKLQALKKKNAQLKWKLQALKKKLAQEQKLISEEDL
T1 TCR beta: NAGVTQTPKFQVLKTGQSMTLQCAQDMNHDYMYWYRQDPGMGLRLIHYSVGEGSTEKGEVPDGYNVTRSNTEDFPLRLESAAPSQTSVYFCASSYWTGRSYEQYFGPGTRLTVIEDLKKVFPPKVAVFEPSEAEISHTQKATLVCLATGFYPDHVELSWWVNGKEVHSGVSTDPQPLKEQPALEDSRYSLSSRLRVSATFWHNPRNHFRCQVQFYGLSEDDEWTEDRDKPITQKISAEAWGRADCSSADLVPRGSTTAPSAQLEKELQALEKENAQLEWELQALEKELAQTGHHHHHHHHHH
Assay: SPR, ProteOn XPR36, 25 C, immobilised TCR-zipper
observable: pKd
pKd field: float, defined as -log10 of concentration (mol/L).

T017000631 (bispecific antibody, also called A0110056A10(E1D)-35GS-T0170056G05(L11V, G26Y, L34Y, M77T, K83R, V89L, F91Y, F95L, R97K, Y99W)-A) DVQLVESGGGLVQAGGSLRLSCAASGITSKINDMGWYRQTPGNYREWVASITATGTTNYRDSVKGRFTISRDNAKSTVYLQMNSLKPEDTTVYYCNTFPPISNFWGQGTLVTVSSGGGGSGGGGSGGGGSGGGGSGGGGSGGGGSGGGGSEVQLVESGGGVVQPGGSLRLSCVASYDVHKINFYGWYRQAPGKEREKVAHISIGDQTDYADSAKGRFTISRDESKNTVYLQMNSLRPEDTALYYCRALSKIWPYDYWGQGTLVTVSSA yielded pKd of 6.54
